Values compiled from patent US20260258035A1.

Molecular target: PARG (Homo sapiens)
Sequence (Q86W56 whole entry): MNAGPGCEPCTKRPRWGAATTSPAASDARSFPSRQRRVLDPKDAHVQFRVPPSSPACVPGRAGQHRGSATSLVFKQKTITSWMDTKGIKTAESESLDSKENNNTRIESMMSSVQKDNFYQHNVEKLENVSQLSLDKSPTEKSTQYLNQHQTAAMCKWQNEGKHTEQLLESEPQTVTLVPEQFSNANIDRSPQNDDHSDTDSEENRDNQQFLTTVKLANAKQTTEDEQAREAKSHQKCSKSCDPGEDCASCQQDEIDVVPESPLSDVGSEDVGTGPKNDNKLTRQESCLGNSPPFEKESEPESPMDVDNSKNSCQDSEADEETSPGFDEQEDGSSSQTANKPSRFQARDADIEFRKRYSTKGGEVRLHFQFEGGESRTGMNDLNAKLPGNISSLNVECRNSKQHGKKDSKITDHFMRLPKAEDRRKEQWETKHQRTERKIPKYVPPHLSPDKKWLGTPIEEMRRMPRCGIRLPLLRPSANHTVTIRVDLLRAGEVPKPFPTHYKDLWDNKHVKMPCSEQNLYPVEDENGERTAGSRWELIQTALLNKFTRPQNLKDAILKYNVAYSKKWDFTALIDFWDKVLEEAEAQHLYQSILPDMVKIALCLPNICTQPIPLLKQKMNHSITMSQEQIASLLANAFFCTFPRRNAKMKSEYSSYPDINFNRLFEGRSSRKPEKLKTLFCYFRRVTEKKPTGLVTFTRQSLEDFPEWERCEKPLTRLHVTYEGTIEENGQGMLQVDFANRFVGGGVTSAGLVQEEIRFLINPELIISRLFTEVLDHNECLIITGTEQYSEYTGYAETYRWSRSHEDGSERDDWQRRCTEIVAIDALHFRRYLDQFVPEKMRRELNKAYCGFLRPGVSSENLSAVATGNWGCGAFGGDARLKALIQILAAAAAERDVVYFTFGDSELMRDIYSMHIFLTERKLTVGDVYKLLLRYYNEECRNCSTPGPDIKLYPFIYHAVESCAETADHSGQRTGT
Assay: Biochemical assay (PARG, TFMU-ADPr substrate)
Settings: PARG, TFMU-ADPr substrate
result-type: IC50 (nM)

compound=COC(C)(C)C(=O)N1CCN(c2cc(S(=O)(=O)NC3(C#N)CC3)cn3c(-c4nnc(C(F)(F)F)s4)ncc23)CC1 reported=3.02
compound=CC(C)C(=O)N1CCN(c2cc(S(=O)(=O)NC3CC3)cn3c(-c4nnc(C(F)(F)F)s4)ncc23)CC1 reported=83.2
compound="CC1(C(=O)N2CCN(c3cc(S(=O)(=O)NC4(C#N)CC4)cn4c(-c5nnc(C(F)(F)F)s5)ncc34)CC2)CCCO1 (centres unmarked)" reported=19.1
compound=CC1(NS(=O)(=O)c2cc(N3CCN(C(=O)C4CNC4)CC3)c3cnc(-c4nnc(C(F)(F)F)s4)n3c2)CC1 reported=25.1
compound=CC(C)C[C@@H]1CN(c2cc(S(=O)(=O)NC3(C#N)CC3)cn3c(-c4nnc(C(F)F)s4)ncc23)CCN1C(=O)C1(C)CC1 reported=5.01
compound="COCC1CN(c2cc(S(=O)(=O)NC3(C)COC3)cn3c(-c4nnc(C(F)(F)F)s4)cnc23)CCN1 (centres unmarked)" reported=36.3
compound=C[C@@H]1CN(c2cc(S(=O)(=O)NC3(C)CC3)cn3c(-c4nnc(C(F)F)s4)ncc23)CCN1C(=O)C1(C)CC1 reported=1.32
compound=CC(C)C(=O)N1CCN(c2c(F)c(S(=O)(=O)NC3(C#N)CC3)cn3c(-c4nnc(C(F)(F)F)s4)ncc23)CC1 reported=28.2
compound="CC(O)(C#Cc1ccccc1)C(=O)N1CCN(c2cc(S(=O)(=O)NC3(C#N)CC3)cn3c(-c4nnc(C(F)(F)F)s4)ncc23)CC1 (centres unmarked)" reported=191
compound=CN1CC[C@@H]1C(=O)N1CCN(c2cc(S(=O)(=O)NC3(C)CC3)cn3c(-c4nnc(C(F)(F)F)s4)ncc23)CC1 reported=4.37
compound=N#CC1(NS(=O)(=O)c2cc(N3CCN(C(=O)[C@@H]4C[C@@H](O)CN4)CC3)c3cnc(-c4nnc(C(F)(F)F)s4)n3c2)CC1 reported=95.5
